Measured Metric: melting point

* CN1C(C)(C)CC(NC(=O)c2ccc(-c3nc4cc(Cl)c(Cl)cc4[nH]3)c(O)c2)CC1(C)C [Example 3] | > 250 °C
* CN1C(C)(C)CC(NC(=O)c2ccc(-c3nc4cc(Cl)c(Cl)cc4[nH]3)cc2)CC1(C)C [Example 1] | > 280 °C
* COc1cc(C(=O)NC2CC(C)(C)NC(C)(C)C2)ccc1-c1nc2cc(Cl)c(Cl)cc2[nH]1 [Example 10] | 233 to 235 °C

Record CN1C(C)(C)CC(NC(=O)c2ccc(-c3nc4cc(Cl)ccc4[nH]3)cc2)CC1(C)C [Example 2] , field melting point: > 250 °C

Memo: CCOc1cc(C(=O)NCCCO)ccc1-c1nc2cc(Cl)c(Cl)cc2[nH]1 [Example 16] , reported melting point: 148 to 150 °C

###

melting point for assorted compounds

# annotated cases, reported melting point shown
• COc1cc(-c2nc3cc(Cl)c(Cl)cc3[nH]2)c(OC)cc1C(=O)NC1CC(C)(C)N(C)C(C)(C)C1 = > 250 °C
• Cc1cc(C(=O)NC2CC(C)(C)NC(C)(C)C2)ccc1-c1nc2cc(Cl)c(Cl)cc2[nH]1 = > 250 °C
• O=C(NCCCN1CCN(c2ncccn2)CC1)c1ccc(-c2nc3cc(Cl)c(Cl)cc3[nH]2)c(O)c1 = 258 to 260 °C
• CCOc1cc(C(=O)NC2CC(C)(C)NC(C)(C)C2)ccc1-c1nc2ccc(Cl)cc2[nH]1 = 222 to 225 °C
• COc1cc(C(=O)N(C)C2CC(C)(C)NC(C)(C)C2)ccc1-c1nc2cc(Cl)c(Cl)cc2[nH]1 = 240 to 242 °C
• CCOc1cc(C(=O)Nc2cccnc2)ccc1-c1nc2cc(Cl)c(Cl)cc2[nH]1 = > 260 °C

Below: the item to evaluate.
Per the records, this compound ( COc1cc(-c2nc3cc(Cl)c(Cl)cc3[nH]2)c(OC)cc1C(=O)NC1CC(C)(C)NC(C)(C)C1 ) has melting point equal to > 250 °C
